Assay: compound fluorescence in toxin protease inhibitor counterscreen, primary screen, artefact control for toxin protease inhibitor project, biochemical, multiplex microsphere, HTS (AID 624483)
Settings: compound autofluorescence counterscreen, microsphere flow cytometry
Out of some 360,000 compounds screened, about 11,000 (3.1%) were called active. Not shown: some 2% with an inconclusive outcome. Cut-off read from the data, not from the text of the source: active = fluorescence intensity above about 16000; inconclusive = no clear call, values can overlap the other calls; inactive = below that. The entries come from a sample that favours actives as a whole.
Labels: active, inactive

# COMPOUND, CATEGORY
rows = [
    ("CCCN(CCC)CCNC(=O)c1cc2c(C)nc3ccccc3c2o1", "active"),
    ("Cc1nc2ccccc2c2oc(C(=O)NCCCN3CCC(C)CC3)cc12", "inactive"),
    ("Cc1cccc(Nc2ccccc2C(=O)NCc2ccco2)c1C", "inactive"),
    ("CCOC(=O)[C@]12CCC=C1N(Cc1ccccc1)C(=O)[C@H](CC(=O)N1CCCC1)C2", "inactive"),
    ("Cn1c(=O)[nH]c(=O)c2c1nc(N(CCO)Cc1ccccc1)n2Cc1ccccc1Cl", "active"),
    ("Cc1ccc(N(Cc2ccc(C(=O)Nc3ccccc3C(=O)NCc3ccco3)cc2)S(C)(=O)=O)cc1C", "active"),
    ("N#Cc1ccccc1-n1c(N)c(C(=O)N2CCCC2)sc1=S", "inactive"),
    ("COC(=O)c1sc(=S)n(-c2ccccc2)c1N", "active"),
    ("COC(=O)C(C)Oc1ccc2c(-c3cccc([N+](=O)[O-])c3)cc(=O)oc2c1 (stereo not drawn)", "active"),
    ("Nc1c(C(=O)OCC(=O)Nc2ccc(OC(F)F)cc2)[nH]c(=O)[nH]c1=O", "inactive"),
    ("CC1CCCCC1NC(=O)CSc1nnc(-c2ccncc2)n1CCCN(C)C (stereo not drawn)", "inactive"),
    ("CC(Sc1ccccc1F)C(=O)Nc1cccc(S(=O)(=O)N2CCOCC2)c1 (stereo not drawn)", "inactive"),
    ("CCCC(=O)N1CCC1(C)C(=O)NS(=O)(=O)c1ccc(Cl)cc1 (stereo not drawn)", "inactive"),
    ("COc1ccccc1-c1cc2nc(NCc3cccc(Cl)c3)ccn2n1", "inactive"),
    ("NC(=O)COc1ccc2c3c(c(=O)oc2c1)CCCCC3", "active"),
    ("Cc1ccc(-c2noc(CC(c3ccccc3)c3ccccc3)n2)cc1", "inactive"),
    ("N#Cc1c(NCCO)ccc([N+](=O)[O-])c1NCCO", "inactive"),
    ("COc1ccc(N2CCN(C(=O)CCc3nc(-c4ccc(C)cc4)no3)CC2)cc1", "inactive"),
    ("Cc1csc(SCC(=O)Nc2ccc(C)c(S(=O)(=O)N(C)C)c2)n1", "inactive"),
    ("CN(C)CCCn1c(SCc2ccc(Cl)cc2)nnc1-c1ccncc1", "inactive"),
    ("Nc1ncnc2c1ncn2[C@@H]1O[C@H](C(=O)N2CCCN(Cc3ccccc3F)CC2)[C@@H](O)[C@H]1O", "inactive"),
    ("CC(=O)Nc1ccc(NC(=O)CSc2nnc(COc3ccccc3C)n2CC2CCCO2)cc1 (stereo not drawn)", "inactive"),
    ("CCCCN1CC(N2CCN(Cc3cccc(C)c3)CC2)CS1(=O)=O (stereo not drawn)", "inactive"),
    ("COC(=O)c1nc(NC(=O)c2ccccc2)n[nH]1", "active"),
    ("CC(O)(c1cccc(F)c1)c1nc(-c2ccc3c(c2)OCO3)cs1 (stereo not drawn)", "inactive"),
    ("COc1ccc(N(Cc2cc3ccc(C)cc3[nH]c2=O)S(=O)(=O)c2ccccc2)cc1", "inactive"),
    ("COc1ccc(C2OC(CCc3ccccc3)Cc3[nH]c(=S)[nH]c(=O)c32)cc1 (stereo not drawn)", "inactive"),
    ("O=C(Nc1ccc(Cl)cc1)C1Cc2c(-c3ccc4c(c3)OCO4)ccnc2O1 (stereo not drawn)", "inactive"),
    ("O=C(O)c1ccccc1-c1cccc2nncn12", "inactive"),
    ("Cc1cccc(-n2c(N)c(C(=O)N3CCN(C)CC3)sc2=S)c1", "inactive"),
    ("O=[N+]([O-])c1ccccc1SNc1ccccn1", "inactive"),
    ("CCOc1ccc(/C=C(/C#N)c2nnc(N3CCOCC3)n2-c2ccccc2)cc1OC", "inactive"),
    ("CCOC(=O)Cn1c(CN(Cc2ccccc2)Cc2ccccc2)nc2c1c(=O)[nH]c(=O)n2C", "inactive"),
]
